Where do these numbers come from? They come from ChEMBL document CHEMBL3853331.

assay: Clearance in Wistar rat plasma at 0.2 mg/kg, iv administered 2 hrs after aminobenzotriazol-treatment; assay type: ADME, organism-based
ATTRIBUTE MEASURED: clearance (mL/min/kg)

COMPOUND: O=C(Nc1ccc(F)cc1)N1N=C(c2ccncc2)CC1c1ccc(F)cc1 (stereo unspecified)
ATTRIBUTE MEASURED: clearance
ASSAY VALUE: 1.6

====

assay: Drug uptake in Wistar rat CSF at 30 mg/kg, po measured after 1 hr; format: ADME, organism-based, Cerebrospinal fluid; details: read-out: Drug uptake

COMPOUND: O=C(Nc1ccc(F)cc1)N1N=C(c2ccncc2)CC1c1ccc(F)cc1 (stereo unspecified)
concentration at 1 h: 47 nM
